Data origin, for the record: ChEMBL document CHEMBL1201862

System: HOP-18
Test: NCI tumour cell line growth inhibition, 48 h
Activity calls are given as the source filed them. Cut-off read from the data, not from the text of the source: active = GI50 up to about 1.1 µM and inactive = higher.
Could you please report measured GI50 for the items listed next?

Quick note, GI50 for CC1OC(n2cc(F)c(=O)[nH]c2=O)C=CC1O (stereo not given) landed at > 100 µM (inactive)

Quick note, GI50 for NC(=O)c1c[se]c(C2OC(CO)C(O)C2O)n1 (stereo not given) landed at > 100 µM (inactive)

Quick note, GI50 for `NC1=NS(=O)(=O)Nc2nc(-c3ccc([N+](=O)[O-])o3)[nH]c21` landed at 16.3 µM (inactive)

Quick note, GI50 for `CC(=O)NC1=C(NC(C)(C)C)C(=O)c2ccccc2C1=O` landed at 14.8 µM (inactive)

Quick note, GI50 for O=C(N/N=C(\c1nc2ccc(Cl)cc2nc1O)C(O)c1ccccc1Cl)c1ccncc1 (stereo not given) landed at > 100 µM (inactive)

Quick note, GI50 for `CCCC/C(C)=N/NC(N)=S` landed at > 100 µM (inactive)

Quick note, GI50 for `Cc1cccc(-n2c(N)c(-c3nc4ccccc4[nH]3)sc2=S)c1` landed at 47.3 µM (inactive)

Quick note, GI50 for `Cc1nc2c(o1)C(=O)c1ccccc1/C2=N\c1ccccc1` landed at 1.85 µM (inactive)

Quick note, GI50 for `Cc1noc2c1C(=O)CCC2` landed at > 100 µM (inactive)

Quick note, GI50 for `Cc1cn([C@H]2C[C@H](N=[N+]=[N-])[C@@H](CO)O2)c(=O)[nH]c1=O` landed at > 100 µM (inactive)

Quick note, GI50 for `C=C[Si](C)(C)COC(=O)/C(C#N)=C/C=C/c1ccccc1` landed at > 100 µM (inactive)

Quick note, GI50 for `O=S1(=O)OCCOS(=O)(=O)C1Cl` landed at > 100 µM (inactive)

Quick note, GI50 for CC1OC(OC2C(CO)OC(O[C@H]3CC[C@@]4(C)C(=CC[C@H]5[C@@H]6C[C@@H]7O[C@]8(CC[C@@H](C)CN8)[C@@H](C)[C@@H]7[C@@]6(C)CC[C@@H]54)C3)C(O)C2O)C(O)C(O)C1O (stereo not given in full) landed at 43.3 µM (inactive)

Quick note, GI50 for `CCOC(=O)Cn1c(=O)[nH]c(=O)c2c1ncn2Cc1ccccc1` landed at > 100 µM (inactive)

Quick note, GI50 for `O=C(Nc1ccc(Cl)cc1Cl)c1c/c(=N\O)c2ccc(O)cc2o1` landed at > 100 µM (inactive)

Quick note, GI50 for `COc1ccc(/C(Cl)=C(\C=O)c2ccc(Cl)cc2)cc1OC` landed at 19.1 µM (inactive)

Quick note, GI50 for O=C(Cc1ccccc1)NN1C(=O)C(Cl)C1c1ccccc1O (stereo not given) landed at 3.82 µM (inactive)

Quick note, GI50 for COc1ccc(C2C(C(=O)O)=C(CO)Oc3cc4c(cc32)OCO4)c(OC)c1 (stereo not given) landed at 98.2 µM (inactive)

Quick note, GI50 for NC1C2(CCCCCC2)NC(=O)C12CCCCCC2 (stereo not given) landed at > 100 µM (inactive)

Quick note, GI50 for `Cc1cc(Cc2cc(C)c(NC(=O)C(=O)C3C(=O)NC(=S)NC3=O)c(C(C)C)c2)cc(C(C)C)c1NC(=O)C(=O)C1C(=O)NC(=S)NC1=O` landed at > 100 µM (inactive)
